# maps each entry to its koff
# system.name: T1, DcR3 FL-Fc (R&D Systems, Inc.) (human, UniProt O95407 30-300)
# T1 construct: Bought product made in insect cells; also called DcR3-Fc (R&D Systems, Inc.); DcR3 FL-Fc (IgG1)
# T1 sequence: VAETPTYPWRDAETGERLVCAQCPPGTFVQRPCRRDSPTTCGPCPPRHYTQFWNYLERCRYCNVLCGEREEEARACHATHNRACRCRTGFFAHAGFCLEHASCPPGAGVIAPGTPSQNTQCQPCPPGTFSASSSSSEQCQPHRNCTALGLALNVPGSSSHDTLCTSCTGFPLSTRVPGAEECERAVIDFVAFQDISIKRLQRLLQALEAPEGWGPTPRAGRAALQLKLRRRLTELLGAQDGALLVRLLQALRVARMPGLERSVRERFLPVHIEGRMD
# procedure.text: SPR, binder captured
Please state the number and follow it with the unit.

Would you please look over these solved cases?
binder	result
soluble recombinant of cynomolgus monkey LIGHT (His10, GS linker, Asp74-Val240) (ligand) HHHHHHHHHHGGGSGGGSGGGSIEGRDGHGGSWEQLIQERRSHQNNPAAHLTGANSSLTGSGGPLLWETQLGLAFLRGLDYHDGALVANKAGYYYIYSKVQLGGVGCPLGLASTITHGLYKRTPRYPEELELLVSQQSPCGRATSNSRVWWDSSFLGGVVHLEVGEEVVVRVLDERLVRLRDGTRSYFGAFMV	0.00038 s⁻¹
soluble recombinant of human TL1A (His6, GS linker, Leu72-Leu251) (ligand, also called His6-TL1A; hTL1A) HHHHHHGGGSGGGSGGGSLKGQEFAPSHQQVYAPLRADGDKPRAHLTVVRQTPTQHFKNQFPALHWEHELGLAFTKNRMNYTNKFLLIPESGDYFIYSQVTFRGMTSECSEIRQAGRPNKPDSITVVITKVTDSYPEPTQLLMGTKSVCEVGSNWFQPIYLGAMFSLQEGDKLMVNVSDISLVDYTKEDKTFFGAFLL	0.00035 s⁻¹

Short answer for soluble recombinant of human FasL (His6, Pro134-Leu281) (ligand) PSPPPEKKELRKVAHLTGKSNSRSMPLEWEDTYGIVLLSGVKYKKGGLVINETGLYFVYSKVYFRGQSCNNLPLSHKVYMRNSKYPQDLVMMEGKMMSYCTTGQMWARSSYLGAVFNLTSADHLYVNVSELSLVNFEESQTFFGLYKL : koff was 0.0004 s⁻¹

Short answer for soluble recombinant of mouse TL1A (His6, GS linker, Ile94-Leu270) (ligand) HHHHHHGGGSGGGSGGGSITEERSEPSPQQVYSPPRGKPRAHLTIKKQTPAPHLKNQLSALHWEHDLGMAFTKNGMKYINKSLVIPESGDYFIYSQITFRGTTSVCGDISRGRRPNKPDSITMVITKVADSYPEPARLLTGSKSVCEISNNWFQSLYLGATFSLEEGDRLMVNVSDISLVDYTKEDKTFFGAFLL : koff was 0.00049 s⁻¹

Short answer for soluble recombinant of cynomolgus monkey FasL (His6, Pro133-Leu280) (ligand, also called His6-cynoFasL) PSPPPEKKEQRKVAHLTGKPNSRSMPLEWEDTYGIVLLSGVKYKKGGLVINETGLYFVYSKVYFRGQSCTNLPLSHKVYMRNSKYPQDLVMMEGKMMSYCTTGQMWAHSSYLGAVFNLTSADHLYVNVSELSLVNFEESQTFFGLYKL : koff was 0.00033 s⁻¹
